Molecular target: Muscarine-M3 (Homo sapiens, UniProt P20309)
Sequence (P20309 whole entry): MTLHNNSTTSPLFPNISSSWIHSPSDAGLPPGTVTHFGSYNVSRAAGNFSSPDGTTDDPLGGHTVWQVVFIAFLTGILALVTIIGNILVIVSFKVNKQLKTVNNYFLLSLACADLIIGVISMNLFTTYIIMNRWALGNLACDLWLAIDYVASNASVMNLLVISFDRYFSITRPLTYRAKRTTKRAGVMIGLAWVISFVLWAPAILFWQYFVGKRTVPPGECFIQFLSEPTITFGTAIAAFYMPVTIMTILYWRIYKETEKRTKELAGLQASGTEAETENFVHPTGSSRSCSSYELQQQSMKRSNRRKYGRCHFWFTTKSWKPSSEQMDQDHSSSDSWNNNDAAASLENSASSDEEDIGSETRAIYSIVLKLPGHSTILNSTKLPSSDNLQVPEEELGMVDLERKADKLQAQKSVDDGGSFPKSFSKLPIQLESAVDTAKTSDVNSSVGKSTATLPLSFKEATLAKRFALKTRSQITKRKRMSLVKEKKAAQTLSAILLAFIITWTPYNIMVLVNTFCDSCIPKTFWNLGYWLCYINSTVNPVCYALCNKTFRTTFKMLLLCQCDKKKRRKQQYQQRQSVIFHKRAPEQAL
Assay: Receptor binding Muscarine-M3
Conditions: radioligand [3H]-4-DAMP, read-out: Ki(nM) Compound 1
Measured Metric: Ki

In plain terms, Nc1cc2cccc(N3CCNCC3)c2oc1=O [Compound 1] has a documented Ki of > 1000 nM

====

Target: Dopamine-D3 (Homo sapiens, UniProt P35462)
Sequence (P35462 whole entry): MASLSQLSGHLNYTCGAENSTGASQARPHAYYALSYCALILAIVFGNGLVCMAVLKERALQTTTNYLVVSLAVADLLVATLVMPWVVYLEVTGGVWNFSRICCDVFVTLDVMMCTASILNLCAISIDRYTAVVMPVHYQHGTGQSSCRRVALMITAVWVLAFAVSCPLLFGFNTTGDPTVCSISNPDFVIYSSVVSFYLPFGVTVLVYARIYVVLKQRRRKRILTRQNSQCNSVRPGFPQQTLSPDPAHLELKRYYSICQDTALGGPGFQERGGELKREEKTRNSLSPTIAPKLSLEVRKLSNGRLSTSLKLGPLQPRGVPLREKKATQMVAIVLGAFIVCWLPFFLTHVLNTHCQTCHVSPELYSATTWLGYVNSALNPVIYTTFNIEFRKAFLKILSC
Assay: Receptor binding Dopamine-D3
Details: radioligand [3H]-spiperone, read-out: Ki(nM) Compound 1
Measured Metric: Ki

Note to self: Ki of `Nc1cc2cccc(N3CCNCC3)c2oc1=O` with Dopamine-D3 (Homo sapiens, UniProt P35462) was > 1000 nM
